- systemName: T1, PDZD2_2, O15018
- T1 sequence (O15018 329-429, limits assumed, looked up): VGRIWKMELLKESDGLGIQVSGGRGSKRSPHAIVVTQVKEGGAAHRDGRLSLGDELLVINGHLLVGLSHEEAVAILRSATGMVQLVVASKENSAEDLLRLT
- measurementProtocol: holdup assay
- Set-up: key: below the threshold = too weak to quantify, mostly under pKd 3.1 to 4
- testSettings: plain residues with an end cap or a label only (N-terminal biotin on a linker: ado-ado)
Kindly supply the reported pKd values for the records listed here.
Please give only the number in your answer, with no unit.

Give pKd for the following binder: YLEPVLSSEL [ATP2A2, P16615;P16615-3] 4.41

Give pKd for the following binder: LGRSTPQSEV [DGKH, Q86XP1] 4.72

Give pKd for the following binder: MLSKQSESAI [FLVCR1, Q9Y5Y0] 4.46

Give pKd for the following binder: PAPSSGKDYV [CLDN1, O95832] 4.59

Give pKd for the following binder: QHKTQLQTLI [BPIFA2, Q96DR5] 4.25

Give pKd for the following binder: TKGPRGPTRV [SAPCD1, Q5SSQ6] 3.88

Give pKd for the following binder: PKRSFIESNV [TANC1, Q9C0D5] 4.81

Give pKd for the following binder: VNKSKLLTDV [KCNA1, Q09470] 4.07

Give pKd for the following binder: EVNETDDTKM [KCNJ1, P48048] 3.5
